Entries below carry reported pIC50 on Poly [ADP-ribose] polymerase 1 (Homo sapiens, UniProt P09874).
Sequence (P09874 whole entry): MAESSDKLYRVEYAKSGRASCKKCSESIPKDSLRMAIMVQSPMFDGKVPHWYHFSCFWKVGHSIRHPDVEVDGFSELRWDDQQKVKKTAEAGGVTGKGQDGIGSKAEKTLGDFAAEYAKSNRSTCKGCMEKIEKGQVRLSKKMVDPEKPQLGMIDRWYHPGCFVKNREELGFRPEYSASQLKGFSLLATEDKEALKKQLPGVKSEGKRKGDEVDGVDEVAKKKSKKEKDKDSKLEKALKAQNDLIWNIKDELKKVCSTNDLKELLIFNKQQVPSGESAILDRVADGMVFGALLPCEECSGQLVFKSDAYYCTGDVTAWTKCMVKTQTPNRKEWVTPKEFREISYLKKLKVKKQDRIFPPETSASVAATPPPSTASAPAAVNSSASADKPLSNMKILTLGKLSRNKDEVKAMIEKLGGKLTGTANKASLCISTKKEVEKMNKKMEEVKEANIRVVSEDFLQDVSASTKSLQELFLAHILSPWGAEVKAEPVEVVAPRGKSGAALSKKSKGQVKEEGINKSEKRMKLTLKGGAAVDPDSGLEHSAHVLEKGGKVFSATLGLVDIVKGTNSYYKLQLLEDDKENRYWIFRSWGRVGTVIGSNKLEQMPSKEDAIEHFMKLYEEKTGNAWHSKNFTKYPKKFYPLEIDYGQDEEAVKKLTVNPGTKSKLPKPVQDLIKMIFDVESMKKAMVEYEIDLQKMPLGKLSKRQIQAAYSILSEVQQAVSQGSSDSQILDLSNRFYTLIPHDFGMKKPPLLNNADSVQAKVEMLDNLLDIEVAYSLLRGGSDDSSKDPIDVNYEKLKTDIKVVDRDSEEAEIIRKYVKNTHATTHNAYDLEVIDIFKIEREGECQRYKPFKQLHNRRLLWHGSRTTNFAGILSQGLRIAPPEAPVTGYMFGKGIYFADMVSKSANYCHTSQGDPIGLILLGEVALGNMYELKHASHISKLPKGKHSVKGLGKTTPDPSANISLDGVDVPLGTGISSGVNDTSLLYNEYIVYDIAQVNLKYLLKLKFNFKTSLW
Scale note: pIC50 = -log10(concentration in M).

molecularString: O=S(=O)(NCCCNN1CCOCC1)c1cc2c(cc1F)-c1nc(O)c3ccccc3c1C2
pIC50: 6.35

molecularString: O=c1[nH]c2c(c3ccccc13)Cc1cc(S(=O)(=O)NCCCn3ccnc3)ccc1-2
pIC50: 6.40

Now look at this entry.
Ask: What value of pIC50 has been recorded for this entry: "O=[N+]([O-])c1ccc2c(c1)-c1nc(O)c3ccccc3c1C2"
Reply: 6.30
